tested target: Fes (UniProt P07332)
Sequence (P07332 whole entry, looked up): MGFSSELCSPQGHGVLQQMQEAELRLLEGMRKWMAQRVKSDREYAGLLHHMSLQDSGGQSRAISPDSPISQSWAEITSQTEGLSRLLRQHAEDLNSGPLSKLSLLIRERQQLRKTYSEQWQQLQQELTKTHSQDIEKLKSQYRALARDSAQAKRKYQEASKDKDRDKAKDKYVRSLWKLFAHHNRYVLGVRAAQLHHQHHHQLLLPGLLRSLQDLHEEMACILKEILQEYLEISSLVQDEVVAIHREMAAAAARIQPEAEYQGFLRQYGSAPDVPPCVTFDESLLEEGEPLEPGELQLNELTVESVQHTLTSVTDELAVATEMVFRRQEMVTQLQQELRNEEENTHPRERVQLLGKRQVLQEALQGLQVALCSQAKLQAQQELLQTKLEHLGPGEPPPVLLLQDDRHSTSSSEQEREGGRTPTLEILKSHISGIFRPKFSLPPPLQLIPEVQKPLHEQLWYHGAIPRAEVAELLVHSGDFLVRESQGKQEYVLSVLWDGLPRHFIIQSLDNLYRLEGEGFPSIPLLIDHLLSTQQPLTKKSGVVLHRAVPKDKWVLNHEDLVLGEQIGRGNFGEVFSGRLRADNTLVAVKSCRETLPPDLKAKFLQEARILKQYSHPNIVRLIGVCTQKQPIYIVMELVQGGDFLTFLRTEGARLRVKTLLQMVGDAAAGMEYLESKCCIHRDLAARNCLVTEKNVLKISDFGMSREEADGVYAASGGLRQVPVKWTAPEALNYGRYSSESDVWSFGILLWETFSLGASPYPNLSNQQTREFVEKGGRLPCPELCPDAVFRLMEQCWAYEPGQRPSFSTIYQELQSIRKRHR
test description: phosphorylation enrichment, bacterial display (enrichment ratio); higher = better substrate or ligand; peptides without Tyr show the background;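 note: 11-residue human phosphosite peptides and single-mutation variants displayed on the E. coli surface, counted by deep sequencing, each peptide's frequency after selection divided by its frequency in the unselected input library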;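 note: frequency after pTyr selection over input frequency; kinase dosed for 20-30% of maximal phosphorylation in three min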
Values of phosphorylation enrichment greater than or equal to 0.9 map to true (1); values below map to false (0).

Decide: phosphorylation enrichment of SVVVPYETPEV [TP53_Y220_P222T] >= 0.9? true (1)

Decide: phosphorylation enrichment of SLQAHYDTPRS [DOK7_Y405_R402Q] >= 0.9? false (0)

Decide: phosphorylation enrichment of GYEEAYSVFKK [PAFAH1B1_Y28] >= 0.9? true (1)

Decide: phosphorylation enrichment of INMKEYCKKDF [NTN1_Y490_K489E_YF] >= 0.9? true (1)

Decide: phosphorylation enrichment of DSILVYQGKEQ [USH2A_Y1909] >= 0.9? false (0)

Decide: phosphorylation enrichment of MCDKEYFSVHN [MET_Y1234_Y1230C_YF] >= 0.9? false (0)

Decide: phosphorylation enrichment of EDGCIYPGTIA [SMN1_Y109_A111G] >= 0.9? true (1)

Decide: phosphorylation enrichment of DEIPLYLKGGV [COX7A2_Y44] >= 0.9? true (1)

Decide: phosphorylation enrichment of GINDDHGQLKN [NBN_Y679_Y679H] >= 0.9? false (0)

Decide: phosphorylation enrichment of LMQAEYWHDPI [PPT1_Y185_V181M] >= 0.9? true (1)

Decide: phosphorylation enrichment of GREYIYVDPMQ [PDGFRA_Y574_H570R] >= 0.9? false (0)

Decide: phosphorylation enrichment of PINEPYGDDLD [JUP_Y693_M697L] >= 0.9? true (1)

Decide: phosphorylation enrichment of GRRGQYVMPSE [TTC7A_Y396_L399P] >= 0.9? false (0)

Decide: phosphorylation enrichment of QKMADYSNKLY [PDPR_Y104] >= 0.9? false (0)

Decide: phosphorylation enrichment of SVVVPYEPPGV [TP53_Y220_E224G] >= 0.9? false (0)

Decide: phosphorylation enrichment of NLDRFYQQVTK [SEC16A_Y1041] >= 0.9? false (0)

Decide: phosphorylation enrichment of DVSVVCSEVKT [FCRL4_Y493_Y493C] >= 0.9? true (1)

Decide: phosphorylation enrichment of NPETCYQKLKK [TK2_Y190_R192K] >= 0.9? true (1)

Decide: phosphorylation enrichment of VVRSLYEDLED [VHL_Y185_I180V] >= 0.9? true (1)
